Test: peroral acute toxicity
Settings: in vivo, po, four-week-old male mouse
QUANTITY: LD50

[in] Form field: reported LD50 of O=C1C(Cl)=C(Cl)C(=O)N1c1ccc(OC(F)F)cc1
[out] > 300 mg/kg

###

Tested on: potted young pears (variety: Niju-seiki)
Test: Phytotoxicity of treating compound, Pear Black Spot test
Details: 500 ppm, damaged area on leaves

# COMPOUND, Phytotoxicity of Treating Compound
measured = [
    ("O=C1C=CC(=O)N1c1ccc(OC(F)F)cc1 [compound 6]", "++ (26-50%)"),
    ("COc1ccccc1N1C(=O)C(Cl)=C(Cl)C1=O [compound 7]", "++ (26-50%)"),
]

###

Test system: potted young oranges (variety: Unshu)
Test: Phytotoxicity of treating compound, residual activity test
Conditions: 1000 ppm, 23 mm/hr of rain
QUANTITY: Phytotoxicity of Treating Compound

Worked set:
# COMPOUND, Phytotoxicity of Treating Compound
records = [
    ("O=C1C(Cl)=C(Cl)C(=O)N1c1ccccc1OC(F)F", "± (1-5%)"),
    ("O=C1C=CC(=O)N1c1ccc(OC(F)F)cc1", "+ (6-25%)"),
    ("COc1ccc(N2C(=O)C(Cl)=C(Cl)C2=O)cc1", "- (0%)"),
    ("O=C1C=CC(=O)N1c1ccccc1OC(F)F", "+ (6-25%)"),
    ("[Cu+2].[O-]c1cccc2cccnc12.[O-]c1cccc2cccnc12 [oxinecopper, 8-Hydroxyquinoline-Cu]", "± (1-5%)"),
]

[in] What value of measured Phytotoxicity of Treating Compound is listed for COc1cccc(N2C(=O)C(Cl)=C(Cl)C2=O)c1 ?
[out] - (0%)

[in] Please look up its Phytotoxicity of Treating Compound: COc1ccccc1N1C(=O)C(Cl)=C(Cl)C1=O
[out] + (6-25%)

[in] GET /values?readout=Phytotoxicity of Treating Compound&item= O=C1C(Cl)=C(Cl)C(=O)N1c1cccc(OC(F)F)c1
[out] ± (1-5%)

[in] # get_value(readout='Phytotoxicity of Treating Compound', item= O=C1C(Cl)=C(Cl)C(=O)N1c1ccc(OC(F)F)cc1 )
[out] - (0%)

###

System: Diaporthe citri
Test: Test of Residual Activity against Citrus Melanose
Assay type: in vivo
Conditions: 1000 ppm, 23 mm/hr of rain; index 2 = 51-75% infested area
Binarize Number of Leaves Showing Each Infestation Index: 2 at 40 leaves; below is true, at or above is false.

[in] Bench note: check whether O=C1C=CC(=O)N1c1ccc(OC(F)F)cc1 [compound 6] shows Number of Leaves Showing Each Infestation Index: 2 below 40 leaves
[out] false

[in] Determine whether this compound shows Number of Leaves Showing Each Infestation Index: 2 lower than 40 leaves (ties excluded): O=C1C(Cl)=C(Cl)C(=O)N1c1ccccc1OC(F)F [compound 1]
[out] true

[in] Quick check: Number of Leaves Showing Each Infestation Index: 2 of O=C1C=CC(=O)N1c1ccccc1OC(F)F [compound 4] under 40 leaves?
[out] false

[in] Find out if reported Number of Leaves Showing Each Infestation Index: 2 for COc1ccccc1N1C(=O)C(Cl)=C(Cl)C1=O [compound 7] is less than 40 leaves
[out] true

[in] Please determine if [Cu+2].[O-]c1cccc2cccnc12.[O-]c1cccc2cccnc12 [oxinecopper, 8-Hydroxyquinoline-Cu] is below 40 leaves in terms of Number of Leaves Showing Each Infestation Index: 2.
[out] true

[in] Confirm or reject: Number of Leaves Showing Each Infestation Index: 2 of O=C1C=CC(=O)N1c1cccc(OC(F)F)c1 [compound 5] lies strictly below 40 leaves
[out] false

[in] Identify whether the compound O=C1C(Cl)=C(Cl)C(=O)N1c1ccc(OC(F)F)cc1 [compound 3] records Number of Leaves Showing Each Infestation Index: 2 below 40 leaves.
[out] true

[in] Does the reported Number of Leaves Showing Each Infestation Index: 2 of the following compound sit strictly below 40 leaves? COc1cccc(N2C(=O)C(Cl)=C(Cl)C2=O)c1 [compound 8]
[out] false

[in] Dear reviewer, please state whether COc1ccc(N2C(=O)C(Cl)=C(Cl)C2=O)cc1 [compound 9] has Number of Leaves Showing Each Infestation Index: 2 strictly beneath 40 leaves.
[out] true

[in] Please indicate whether the reported Number of Leaves Showing Each Infestation Index: 2 of O=C1C(Cl)=C(Cl)C(=O)N1c1cccc(OC(F)F)c1 [compound 2] is strictly below 40 leaves.
[out] true
